The origin of these recorded values is patent US6924302B2.

# TEST_SYSTEM: Insulin Receptor Kinase (Homo sapiens)
# Sequence (P06213 980-1352): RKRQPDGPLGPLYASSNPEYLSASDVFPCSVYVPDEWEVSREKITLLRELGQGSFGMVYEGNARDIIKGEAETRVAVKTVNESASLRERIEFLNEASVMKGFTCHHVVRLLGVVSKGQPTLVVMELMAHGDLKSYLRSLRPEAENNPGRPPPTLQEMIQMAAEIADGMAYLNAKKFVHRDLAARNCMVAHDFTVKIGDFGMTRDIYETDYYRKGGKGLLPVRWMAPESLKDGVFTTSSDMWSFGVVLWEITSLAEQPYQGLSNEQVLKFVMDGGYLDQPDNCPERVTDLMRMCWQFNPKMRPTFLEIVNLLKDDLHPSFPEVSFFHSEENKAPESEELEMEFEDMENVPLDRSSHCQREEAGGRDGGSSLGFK
# ASSAY_NAME: Kinase Selectivity Assay Insulin Receptor Kinase
# Assay type: biochemical
ENDPOINT_LABEL: IC50 (nM)

structure_as_smiles=Cc1cc(C)c(C(=O)n2nc(Nc3ccc(S(N)(=O)=O)cc3)nc2N)s1 quantitative_result=316

----------
# TEST_SYSTEM: Calmodulin Kinase (calmodulin-dependent protein kinase 2) (Rattus norvegicus, UniProt P11275)
# Construct: a truncated version of the alpha subunit of the rat protein; purchased New England Biolabs 6060; host or cells: insect cells
# ASSAY_NAME: Kinase Selectivity Assay Calmodulin Kinase
# Assay type: biochemical
# APPLIED_CONDITIONS: Kinase Selectivity, Tables 2a-2k; read-out: Calmodulin Kinase 2 IC50
ENDPOINT_LABEL: IC50

compound=Cc1cc(C)c(C(=O)n2nc(Nc3ccc(-n4ccnc4)cc3)nc2N)s1 result="19.7 µM"
compound=CNS(=O)(=O)c1ccc(Nc2nc(N)n(C(=O)c3c(F)ccc(C)c3F)n2)cc1 result="> 100 µM"
compound=Cc1cc(C)c(C(=O)n2nc(Nc3ccc(NS(C)(=O)=O)cc3)nc2N)s1 result="> 10 µM"
compound=Nc1nc(Nc2ccc(S(=O)(=O)Nc3ccccn3)cc2)nn1C(=O)c1c(F)cccc1F result="> 100 µM"
compound=Nc1nc(Nc2ccc(S(N)(=O)=O)cc2)n(C(=S)Nc2c(F)cccc2F)n1 result="13.2 µM"
compound=CNS(=O)(=O)c1ccc(Nc2nc(N)n(C(=O)c3sc(C)cc3C)n2)cc1 result="> 100 µM"
compound=Cc1ccsc1C(=O)n1nc(Nc2ccc(N3CCCS3(=O)=O)cc2)nc1N result="> 100 µM"
compound="CC(O)c1ccc(F)c(C(=O)n2nc(Nc3ccc(S(N)(=O)=O)cc3)nc2N)c1F (stereo not drawn)" result="> 100 µM"
compound=Nc1nc(Nc2ccc(N3CCNC3=O)cc2)nn1C(=O)c1c(F)cccc1F result="> 100 µM"

----------
# TEST_SYSTEM: CDK1:Cyclin-B (Homo sapiens)
# Construct: purchased New England Biolabs 6020; host or cells: insect cells
# Sequence (P06493 whole entry): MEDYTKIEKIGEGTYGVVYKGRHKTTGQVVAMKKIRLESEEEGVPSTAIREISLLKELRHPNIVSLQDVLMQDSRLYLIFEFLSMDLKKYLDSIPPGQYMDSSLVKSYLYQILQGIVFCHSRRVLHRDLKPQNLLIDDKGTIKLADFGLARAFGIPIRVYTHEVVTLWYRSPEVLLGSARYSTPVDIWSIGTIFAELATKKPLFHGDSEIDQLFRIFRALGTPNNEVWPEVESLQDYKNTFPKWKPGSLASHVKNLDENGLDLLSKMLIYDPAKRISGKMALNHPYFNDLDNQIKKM
# Sequence (P14635 whole entry partner): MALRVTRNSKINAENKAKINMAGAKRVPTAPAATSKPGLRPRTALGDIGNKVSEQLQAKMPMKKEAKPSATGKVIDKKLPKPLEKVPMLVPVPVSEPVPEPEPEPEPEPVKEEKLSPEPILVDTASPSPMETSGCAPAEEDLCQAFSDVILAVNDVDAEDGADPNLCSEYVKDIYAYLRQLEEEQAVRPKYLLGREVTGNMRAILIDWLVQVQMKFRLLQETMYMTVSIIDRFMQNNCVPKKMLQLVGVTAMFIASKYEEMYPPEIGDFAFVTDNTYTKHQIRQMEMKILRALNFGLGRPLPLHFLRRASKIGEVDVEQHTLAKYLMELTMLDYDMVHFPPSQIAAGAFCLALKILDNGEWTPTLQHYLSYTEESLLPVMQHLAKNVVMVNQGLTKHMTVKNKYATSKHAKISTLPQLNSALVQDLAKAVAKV
# ASSAY_NAME: CDK1 Screening Assay
# Format: biochemical
# APPLIED_CONDITIONS: Kinase Selectivity, Tables 2a-2k; read-out: CDK1 IC50
pIC50: −log10 of the molar value.
Quick list: pIC50 per entry.
ENDPOINT_LABEL: pIC50

structure_as_smiles=CNS(=O)(=O)c1ccc(Nc2nc(N)n(C(=O)c3sccc3C)n2)cc1 test_system="CDK1:Cyclin-B (Homo sapiens)" endpoint_label=pIC50 qualifier_operator== quantitative_result=8.05
structure_as_smiles=Cc1ccsc1C(=O)n1nc(Nc2ccc(S(N)(=O)=O)cc2)nc1N test_system="CDK1:Cyclin-B (Homo sapiens)" endpoint_label=pIC50 qualifier_operator== quantitative_result=8.32
structure_as_smiles=Nc1nc(Nc2ccc(S(N)(=O)=O)cc2)nn1C(=O)c1cccs1 test_system="CDK1:Cyclin-B (Homo sapiens)" endpoint_label=pIC50 qualifier_operator== quantitative_result=8.35
structure_as_smiles=Nc1nc(Nc2ccc(S(N)(=O)=O)cc2)nn1C(=O)c1ccsc1 test_system="CDK1:Cyclin-B (Homo sapiens)" endpoint_label=pIC50 qualifier_operator== quantitative_result=7.77
structure_as_smiles=Nc1nc(Nc2cccc(Cl)c2)nn1C(=O)c1c(F)cccc1F test_system="CDK1:Cyclin-B (Homo sapiens)" endpoint_label=pIC50 qualifier_operator== quantitative_result=7.10
structure_as_smiles=CC(C)(C)c1ccc(C(=O)n2nc(Nc3ccc(S(N)(=O)=O)cc3)nc2N)s1 test_system="CDK1:Cyclin-B (Homo sapiens)" endpoint_label=pIC50 qualifier_operator== quantitative_result=8.15
structure_as_smiles=Nc1nc(Nc2ccccc2)nn1C(=O)c1ccccc1 test_system="CDK1:Cyclin-B (Homo sapiens)" endpoint_label=pIC50 qualifier_operator== quantitative_result=6.28
structure_as_smiles=Nc1nc(Nc2ccccc2)nn1C(=O)c1c(F)cccc1F test_system="CDK1:Cyclin-B (Homo sapiens)" endpoint_label=pIC50 qualifier_operator== quantitative_result=6.74
structure_as_smiles=Cc1ccc(F)c(C(=O)n2nc(Nc3ccc(S(N)(=O)=O)cc3)nc2N)c1F test_system="CDK1:Cyclin-B (Homo sapiens)" endpoint_label=pIC50 qualifier_operator== quantitative_result=8.52
structure_as_smiles=Cc1ccsc1C(=O)n1nc(Nc2ccc(N3CCCS3(=O)=O)cc2)nc1N test_system="CDK1:Cyclin-B (Homo sapiens)" endpoint_label=pIC50 qualifier_operator== quantitative_result=7.68
structure_as_smiles=Cc1ccsc1C(=O)n1nc(Nc2ccc(S(=O)(=O)NCCN(C)C)cc2)nc1N test_system="CDK1:Cyclin-B (Homo sapiens)" endpoint_label=pIC50 qualifier_operator== quantitative_result=8.80
structure_as_smiles=CCc1ccc(C(=O)n2nc(Nc3ccc(S(=O)(=O)NCCN(C)C)cc3)nc2N)s1 test_system="CDK1:Cyclin-B (Homo sapiens)" endpoint_label=pIC50 qualifier_operator== quantitative_result=8.15
structure_as_smiles=Nc1nc(Nc2ccc(S(N)(=O)=O)cc2)nn1C(=O)c1sccc1Cl test_system="CDK1:Cyclin-B (Homo sapiens)" endpoint_label=pIC50 qualifier_operator== quantitative_result=8.60
structure_as_smiles=Nc1nc(Nc2ccc(S(N)(=O)=O)cc2)nn1C(=O)c1c(F)cccc1Cl test_system="CDK1:Cyclin-B (Homo sapiens)" endpoint_label=pIC50 qualifier_operator== quantitative_result=7.46
structure_as_smiles=Nc1nc(Nc2ccc(S(N)(=O)=O)cc2)nn1C(=S)Nc1c(F)cccc1F test_system="CDK1:Cyclin-B (Homo sapiens)" endpoint_label=pIC50 qualifier_operator== quantitative_result=9.22
structure_as_smiles=CCc1ccc(C(=O)n2nc(Nc3ccc(S(N)(=O)=O)cc3)nc2N)s1 test_system="CDK1:Cyclin-B (Homo sapiens)" endpoint_label=pIC50 qualifier_operator== quantitative_result=8.52
structure_as_smiles=Cc1ccccc1C(=O)n1nc(Nc2ccc(S(N)(=O)=O)cc2)nc1N test_system="CDK1:Cyclin-B (Homo sapiens)" endpoint_label=pIC50 qualifier_operator== quantitative_result=7.17
structure_as_smiles=Cc1ccc(F)c(C(=O)n2nc(Nc3ccc(S(N)(=O)=O)cc3)nc2N)c1Cl test_system="CDK1:Cyclin-B (Homo sapiens)" endpoint_label=pIC50 qualifier_operator== quantitative_result=7.64
structure_as_smiles=Nc1nc(Nc2cccc(Cl)c2)n(C(=O)c2ccccc2)n1 test_system="CDK1:Cyclin-B (Homo sapiens)" endpoint_label=pIC50 qualifier_operator=< quantitative_result=4.00

----------
# TEST_SYSTEM: VEGF-R (vascular endothelial growth factor receptor-2) (Rattus norvegicus, UniProt O08775)
# Construct: polyhistidine (6xHIS) (N)
# Sequence (O08775 786-1343): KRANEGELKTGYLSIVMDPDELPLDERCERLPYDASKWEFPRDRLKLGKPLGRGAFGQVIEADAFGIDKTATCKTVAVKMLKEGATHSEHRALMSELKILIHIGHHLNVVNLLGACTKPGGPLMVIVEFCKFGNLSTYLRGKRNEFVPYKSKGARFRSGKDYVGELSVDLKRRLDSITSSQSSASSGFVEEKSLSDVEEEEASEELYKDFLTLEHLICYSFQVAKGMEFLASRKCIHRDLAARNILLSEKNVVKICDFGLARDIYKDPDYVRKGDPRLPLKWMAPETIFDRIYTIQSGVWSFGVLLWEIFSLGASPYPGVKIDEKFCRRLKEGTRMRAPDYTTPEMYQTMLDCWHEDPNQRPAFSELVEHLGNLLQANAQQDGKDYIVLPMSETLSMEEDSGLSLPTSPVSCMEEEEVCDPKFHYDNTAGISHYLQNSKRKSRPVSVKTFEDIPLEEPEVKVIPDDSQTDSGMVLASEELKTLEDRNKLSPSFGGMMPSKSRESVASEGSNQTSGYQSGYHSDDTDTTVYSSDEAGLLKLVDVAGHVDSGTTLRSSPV
# ASSAY_NAME: VEGF-R Screening Assay
# Assay type: biochemical
# APPLIED_CONDITIONS: Table 1; read-out: VEGF-R IC50
Note to self: use y only for IC50 readings below 600 nM; a reading exactly at 600 nM still gets n.

compound="Nc1nc(Nc2ccc(S(N)(=O)=O)cc2)n(C(=O)c2c(F)cccc2F)n1 [Cpd 122]" assigned_category=n
compound="Nc1nc(Nc2ccc(S(N)(=O)=O)cc2)nn1C(=O)c1ccc(Br)s1 [Cpd 21]" assigned_category=y
compound="Cc1ccc(F)c(C(=O)n2nc(Nc3ccc(-n4ccnc4)cc3)nc2N)c1F [Cpd 94]" assigned_category=y
compound="Cc1nnsc1C(=O)n1nc(Nc2ccc(S(N)(=O)=O)cc2)nc1N [Cpd 36]" assigned_category=n
compound="Nc1nc(Nc2ccc(S(N)(=O)=O)cc2)nn1C(=O)c1ccccn1 [Cpd 27]" assigned_category=n
compound="Nc1nc(Nc2ccc(S(N)(=O)=O)cc2)nn1C(=O)c1sccc1-n1cccc1 [Cpd 50]" assigned_category=y
compound="Cc1ccsc1C(=O)n1nc(Nc2ccc(N3CCNC3=O)cc2)nc1N [Cpd 113]" assigned_category=y
compound="CC1CCCCC1C(=O)n1nc(Nc2ccc(S(N)(=O)=O)cc2)nc1N (stereo not shown) [Cpd 47]" assigned_category=n
compound="Nc1nc(Nc2ccc(N3CCCS3(=O)=O)cc2)nn1C(=O)c1c(F)cccc1F [Cpd 117]" assigned_category=n
compound="Nc1nc(Nc2ccc(S(N)(=O)=O)cc2)nn1C(=O)Cc1cccs1 [Cpd 40]" assigned_category=n
compound="Nc1nc(Nc2ccc(S(N)(=O)=O)cc2)nn1S(=O)(=O)c1c(F)cccc1F [Cpd 68]" assigned_category=n
compound="Cc1ccc(F)c(C(=O)n2nc(Nc3ccc(S(=O)(=O)N(C)C)cc3)nc2N)c1F [Cpd 88]" assigned_category=n
compound="Cc1ccsc1C(=O)n1nc(Nc2ccc(S(=O)(=O)N3CCCCC3)cc2)nc1N [Cpd 24]" assigned_category=y
compound="Nc1nc(Nc2ccc(S(N)(=O)=O)cc2)nn1C(=O)/C=C/c1cccs1 [Cpd 42]" assigned_category=y
compound="CS(=O)(=O)Nc1ccc(Nc2nc(N)n(C(=O)c3c(F)cccc3F)n2)cc1 [Cpd 111]" assigned_category=n
compound="Nc1nc(Nc2ccc(S(N)(=O)=O)cc2)nn1C(=O)c1csnn1 [Cpd 37]" assigned_category=n
compound="COc1cccc(OC)c1C(=O)n1nc(Nc2ccc(S(N)(=O)=O)cc2)nc1N [Cpd 10]" assigned_category=y
